B1: tRNA (parent)
chain: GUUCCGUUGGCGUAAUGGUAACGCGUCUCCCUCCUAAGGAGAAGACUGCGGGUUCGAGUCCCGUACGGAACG

variants of: B1; test: yeast fitness relative to wild type (ratio to wild type); higher = fitter; tRNA-Arg(CCU), competitive growth, 37 C, YPD
Fewer inactive variants are shown than the library holds.
I would appreciate it if you labelled entries true (1) when yeast fitness is 0.7 or higher, otherwise false (0).

INPUT: Check if yeast fitness >= 0.7 (inclusive). Item: GUUCCGUUGGCGUAAUGGUAACGCGUCACCCUCCUAAGGAGAAGACUGCGCGUUCGCGUCCCGUACGGAACG [U28A G51C A57C]
OUTPUT: false (0)

INPUT: Check if yeast fitness >= 0.7 (inclusive). Item: GUUCCGUUGGCGUAAUGGUAACGCCUCUGCCGCCUAAGGAGAUGACUGCAGGUUCGAGUCCCGUACGGAACG [G25C C29G U32G A43U G50A]
OUTPUT: false (0)

INPUT: Check if yeast fitness >= 0.7 (inclusive). Item: GUUCCGUGGGCGUAAUGGUAACGCGACUCCCUCCUAAGGAGAAGACUGCGGAUUCGAGUCCCGUACGGAACG [U8G U26A G52A]
OUTPUT: false (0)

INPUT: Check if yeast fitness >= 0.7 (inclusive). Item: GUUCCGUUGGCGUAAUGGUAACGCGUUUCCCUCCUACGGAGAAGACUGCGGGUUCGAGUGCCGUGCGGAACG [C27U A37C C60G A65G]
OUTPUT: false (0)

INPUT: Check if yeast fitness >= 0.7 (inclusive). Item: GUUCCGUUGGCGUAAUGGUAACGCGUCUACAUCCUAAGGUGAAGACUGUGGGUUCGAGUCCCGUACGGAACG [C29A C31A A40U C49U]
OUTPUT: false (0)

INPUT: Check if yeast fitness >= 0.7 (inclusive). Item: GUUUCGUUGGCGUAAUGGUAACGCGUUUCCCUCCUAAGGAGAAGACUGCGGGUUCGCGUCUCGUACGGAACG [C4U C27U A57C C61U]
OUTPUT: false (0)

INPUT: Check if yeast fitness >= 0.7 (inclusive). Item: GUUCCGUUGGCGUAAUGGUAACGCGUCUCCCUCCUAAGGAGAGGCUUGCGGGUUCGAGUCCCGUACGGAACG [A43G A45C C46U]
OUTPUT: false (0)

INPUT: Check if yeast fitness >= 0.7 (inclusive). Item: GUUCCGUUGGCGUAAUGGUAACCCGUCUCCAUCCUAAGGAGAAGACUGGGGGUUAGAGUCCCGUACGGAACG [G23C C31A C49G C55A]
OUTPUT: false (0)
